# Experimental System: T1, Nbp2, Q12163
# T1 sequence (Q12163 103-180, looked up): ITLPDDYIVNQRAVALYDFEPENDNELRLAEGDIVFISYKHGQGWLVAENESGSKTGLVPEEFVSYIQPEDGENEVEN
# Test Name: SPOT array
# Reported Conditions: median of control spots 357
Measure Name: SPOT intensity

Worked cases, answers included:
>>> df
            binder  measured_number
0  KIRRSSLMIPNPQQF                0
1  SSSSTPPTLPPRRIE                0
2  RVRKTHVPASKRPSG                0
3  SPLGAPPPPPHKDHL                0
4  HVRRSILALPLGVLL                0
5  PSTMDFPKLPSFQNS               57

1 = RRASLFPRDPKRLRP
2 = NLPKRKPPKLQGPFS
Problem: Select the item with the higher value of SPOT intensity from the options 1 and 2 listed. Your choice should be expressed through its label.
Solution: 2

a = PPPPPPPPPPLPQSL
b = DFTLPPPPPPPGLDE
Problem: Select the item with the higher value of SPOT intensity from the options a and b listed. Your choice should be expressed through its label.
Solution: b
(b: 3, a: 0)

A = AERNYAPRLPRRETS
B = KFIPSRPAPKPPSSA
Problem: Input pair: A , B . Output: entry with lower SPOT intensity. Your choice should be expressed through its label.
Solution: A
(A: 0, B: 2510)
